target: IL-17A(FLAG-Tagged): IL-17RA(His-Tagged) (Homo sapiens, UniProt Q16552, K93Q); assay: IL-17A(FLAG-Tagged): IL-17RA(His-Tagged) Binding Disruption Eu-HTRF Assay; settings: IL-17A/IL-17RA binding disruption, simple average if tested more than once
Sequence (Q16552 with tags, fused parts or gaps K93Q): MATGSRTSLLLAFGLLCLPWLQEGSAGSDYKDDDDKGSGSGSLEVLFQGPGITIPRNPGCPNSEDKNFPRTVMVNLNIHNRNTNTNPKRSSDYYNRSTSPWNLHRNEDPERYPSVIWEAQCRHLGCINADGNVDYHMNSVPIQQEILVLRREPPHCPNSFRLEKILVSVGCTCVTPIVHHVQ
Here the recorded IC50 is given for each entry.
Record the value in nM, omitting the unit from your answer.

compound=O=C(CCC(F)(F)F)N[C@@H](c1cnn2cc([C@@H](NC(=O)c3ccccc3C(F)F)C3CCC(F)(F)CC3)nc2c1)C1CC1 readout_value=260

Please examine the following record next.
Name the reported IC50 value associated with the compound O=C(CC1CC(F)(F)C1)NC(c1cnn2cc([C@@H](NC(=O)c3cnnn3CCC(F)(F)F)C3CCC(F)(F)CC3)nc2c1)C1CC1 (single isomer, unassigned) [Example 72]
78
